Cited source: PubChem BioAssay (NCI)

- Tested on: HCT-15 colon
- protocol-details: NCI-60 one-dose screen, 48 h (100 = growth as untreated, 0 = no growth, -100 = all killed)
- experimental-conditions: 10 µM unless noted
About 83,000 compounds went through this panel and 20% of them were active in at least one assay; those are over-represented in the sample as a whole.
Returns: string. Value is y if measured growth is below 60%, and n if it is greater than or equal to it.

// known answers, use as guide
1) O=C(NNC(=O)N1c2ccccc2C=Cc2ccccc21)c1ccccc1 :: n
2) N/C(=N\C(N)=N\c1nc2ccccc2s1)c1cccc(Br)c1 :: y
3) CCOc1cc2c(Cl)ncnc2c(OCC)c1OCC :: y
4) O=C1NC(=C(Cl)Cl)/C(=N/S(=O)(=O)N2CCC(C3(C(F)(F)F)N=N3)CC2)N1 :: y

Threshold test, growth < 60%: COc1ccc(Nc2[nH]n3c(=O)cc(-c4ccccc4)nc3c2C(=O)Nc2ccc(C)cc2)c(OC)c1
n

====

- Tested on: SNB-19 CNS
- protocol-details: NCI-60 one-dose screen, 48 h (100 = growth as untreated, 0 = no growth, -100 = all killed)
- experimental-conditions: 10 µM unless noted
About 83,000 compounds went through this panel and 20% of them were active in at least one assay; those are over-represented in the sample as a whole.
attribute-measured: growth (%)
Answer in %, number only, no unit symbol.

Consider the following illustrative entries.
1) Cc1cc(C(C)(C)C)ccc1S :: 105
2) Nc1nc(Nc2cc(Cl)cc(Cl)c2)nn1S(=O)(=O)c1ccc2ccccc2c1 :: 78
3) O=C(NS(=O)(=O)c1ccc2ccccc2c1)n1cc(-c2ccncc2)c(-c2ccc(Cl)c(O)c2)n1 :: 109
4) CC(C)(C)Nc1c(-c2cccs2)nc2ncccn12 :: 95.9
5) COc1ccc(C(=O)NC(=O)Nc2cc3c(cc2F)/C(=C/c2[nH]c(C)c(CCC(=O)O)c2C)C(=O)N3)c(F)c1 :: 20
6) O=c1[nH]c(Nc2ccc(S(=O)(=O)O)cc2)nc2nc(Nc3ccc(NC(=S)Nc4ccccc4)cc3)nc(-c3ccc(O)cc3O)c12 :: 91.1
7) COc1ccc2c(c1)OC1=C(C(=O)OC1)C2c1cc(OC)c2c(c1)OCO2 (centres undefined) :: 29
8) CC(=O)Nc1ccc(S(=O)(=O)n2ccc(-c3ccc4c(c3)CCC(C)(C)O4)n2)cc1 :: 73.3

The record that follows has no growth shown yet.
growth in this record for CC(C)(C)n1cc(-c2ccnc(NCCNS(=O)(=O)c3ccc(Cl)cc3)c2)c(-c2cccc(O)c2)n1 : 76.6

====

- Test system: MCF7 breast
- protocol-details: NCI-60 one-dose screen, 48 h
- experimental-conditions: 10 µM unless noted
About 83,000 compounds went through this panel and 20% of them were active in at least one assay; those are over-represented in the sample as a whole. The source made the active and inactive calls. How the source made its calls: active means growth percent below 10; inactive means the rest.
Answer with one of the outcomes active, inactive

1. CCOC(=O)/C(C#N)=C1/C(=O)Nc2ccccc21 :: inactive

Call for entry C/C(=N/NC(=S)Nc1ccccc1)c1nc2ccc(Cl)cc2[nH]1 :
active

Call for entry CC(C)(C)n1cc(-c2ccnc(NCCCNS(=O)(=O)c3ccc(F)cc3)c2)c(-c2cccc(O)c2)n1 :
inactive

Call for entry C=C[C@@H]1C[C@@H]2Cc3cc(Cl)ccc3N1O2 :
inactive

Call for entry NC1=NN(O)C2=CC([N+](=O)[O-])C=CC2=N1 (stereo not given) :
inactive

====

- System: RPMI-8226 leukemia
- protocol-details: NCI-60 one-dose screen, 48 h
- experimental-conditions: 10 µM unless noted
About 83,000 compounds went through this panel and 20% of them were active in at least one assay; those are over-represented in the sample as a whole. Activity calls are given as the source filed them. Rule for the calls: active = growth percent below 10; inactive = the rest.
Answer with one of the outcomes active, inactive

1. COc1cc(-c2nn(-c3cccc(NC(=O)c4ccccc4)c3)cc2-c2ccncc2)ccc1Cl :: active
2. C=C[C@@H]1C[C@H](O)Cc2ccccc2N1 :: inactive
3. COc1ccc(C2C=C(c3ccc(OC)c(OC)c3)N=C3SC=C(C)N32)c(Br)c1 (stereo not drawn) :: inactive
4. COc1ccc(-c2cnoc2-c2ccc(OC)cc2O)cc1 :: inactive
5. OB(O)c1cccc(-c2nc3ccc4[nH]ncc4c3c3c2CCCC3)c1F :: inactive

Call for entry CCN1C(=O)N(CC)C2C1NN=c1s/c(=C\c3cccnc3)c(=O)n12 (stereo not drawn) :
inactive

Call for entry NC(=O)c1c(NC(=S)Nc2ccc(OC(F)(F)F)cc2)sc2c1CCC1(C2)OCCO1 :
inactive

Call for entry COc1ccc(-c2nc3sccn3c2/C=C/C(=O)c2cc(F)cc(F)c2)cc1 :
active

Call for entry Cc1ccc(N2CCN(C(C)C(N)=O)CC2)cc1 (stereo not drawn) :
inactive

Call for entry C=C(C)[C@@H]1C[C@@H]2Cc3cc(Cl)ccc3N1O2 :
inactive

====

- System: MDA-MB-435 melanoma
- protocol-details: NCI-60 one-dose screen, 48 h
- experimental-conditions: 10 µM unless noted
About 83,000 compounds went through this panel and 20% of them were active in at least one assay; those are over-represented in the sample as a whole. Activity calls are given as the source filed them. How the source made its calls: active means growth percent below 10; inactive means the rest.
Answer with one of the outcomes active, inactive

1. COc1ccc(C(=O)N2NC(=O)/C(=C/c3ccc(Br)cc3)N=C2c2ccccc2)cc1 :: inactive

Call for entry O=C1/C(=C/c2ccc([N+](=O)[O-])cc2)CN(C(=O)CCN2CCC(=NO)CC2)C/C1=C\c1ccc([N+](=O)[O-])cc1 :
active

Call for entry COc1ccc(-c2nc(-c3nc4cc(C)c(C)cc4[nH]3)cc3c2[nH]c2ccccc23)cc1 :
inactive

Call for entry COc1cc(NCCCCCN)c2ncccc2c1 :
inactive

Call for entry COc1cc2c(cc1OCCCCCn1c3ccccc3c3ccccc31)N=C[C@@H]1CCCN1C2=O :
active

Call for entry CCCCCCCC[C@@H](O)CC(=O)N[C@@H](CC(N)=O)C(=O)N[C@@H](CCC(N)=O)C(=O)N[C@@H](CC(=O)c1cc(C)cc(O)c1C(=O)c1c(O)cccc1O)CC(C)C :
active

Call for entry O=C(Nc1ccc(Cl)c(Cl)c1)NS(=O)(=O)c1cnccc1Oc1ccc(F)cc1 :
inactive

Call for entry Cc1ccc(S(=O)(=O)n2cc(C(=O)C(=O)Nc3ccncc3)c3ccccc32)cc1 :
active

====

- System: TK-10 renal
- protocol-details: NCI-60 one-dose screen, 48 h
- experimental-conditions: 10 µM unless noted
Compounds without any hit were thinned out: in the full panel of roughly 83,000, 20% have a hit. Active and inactive are the calls of the source. Rule for the calls: active = growth percent below 10; inactive = the rest.
Answer with one of the outcomes TRUE for active, FALSE for inactive

1) Cc1ccc(-c2csc(NC(=O)CCCCl)n2)cc1 :: FALSE
2) NC(=O)c1c(NC(=S)Nc2ccc(OC(F)(F)F)cc2)sc2c1CCC1(C2)OCCO1 :: FALSE

Call for entry Oc1ccc2cc(Br)ccc2c1-c1c(O)ccc2cc(Br)ccc12 :
FALSE

Call for entry COc1ccc(-c2c(N)n[nH]c2-c2cc3c(c(OC)c2OC)OCO3)cc1 :
FALSE

Call for entry CCOC(=O)C1=C(C)NC(C)=C(C(=O)OCC)C1(C)C :
FALSE

====

The entries below are paired with their reported growth.
- Test system: PC-3 prostate
- protocol-details: NCI-60 one-dose screen, 48 h (100 = growth as untreated, 0 = no growth, -100 = all killed)
- experimental-conditions: 10 µM unless noted
About 83,000 compounds went through this panel and 20% of them were active in at least one assay; those are over-represented in the sample as a whole.
Answer in %, number only, no unit symbol.

Consider the following illustrative entries.
1. COc1cccc(-c2cc3c(O)cc(C#N)cc3[nH]2)c1 :: 81.8
2. C/C(=C\c1ccc(OCC(=O)O)c(Cl)c1Cl)[N+](=O)[O-] :: 92
3. COc1cc(-c2nn(C(=O)NS(=O)(=O)c3ccccc3)cc2-c2ccncc2)ccc1Cl :: 78.2
4. Cc1ccc(S(=O)(=O)NC(=O)n2cc(-c3ccncc3)c(-c3ccc(Cl)c(O)c3)n2)cc1 :: 95.3
5. O=C(Nc1ccc2c(c1)OCO2)C(=O)c1c[nH]c2cc(F)ccc12 :: 63.8
6. COc1ccc(/C=C/c2c(C(C)=O)c(C)nc3ccccc23)cc1 :: 76.1
7. COc1ccc2[nH]c(=O)c(/C=N/Nc3nc(-c4ccccc4)cs3)c(O)c2c1 :: 58.9
8. COc1ccc(-n2c(=O)sc3c(Cl)nc(C)nc32)c(OC)c1 :: 85.2
9. COc1ccc(C(=O)c2cc(OC)c(OC)c(OC)c2OC)cc1O :: 68.4
10. COc1ccc(NC(=O)CSc2nc(-c3ccc(OC)c(OC)c3)cc(-c3cc(OC)c(OC)c(OC)c3)n2)cc1 :: 88.6

growth in this record for COc1cc(Cn2cc3c(c2)-c2oncc2CC3)cc(OC)c1OC : 38.4

growth in this record for CCNc1nc(S(=O)(=O)CC)nc2ccccc12 : 96.8

growth in this record for FC(F)(F)c1cccc(-c2cn3c(ccc4ccccc43)n2)c1 : 83

growth in this record for CCCC(=O)Oc1ccc(/C(=C(\C)c2ccccc2)c2ccc(OCCN(CC)CC)cc2)cc1 : 60.7

growth in this record for O=C1NC(=C(Cl)Cl)/C(=N/S(=O)(=O)N2CCC(C3(C(F)(F)F)N=N3)CC2)N1 : 89.6
